For each of the compounds below, state its cell viability.
system: MOLM14; assay: cell viability relative to vehicle control; higher = less cytotoxic; details: 10 µM; SRSF2 genotype: SRSF2 P95H/wt;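 further: after 48 h exposure read by CellTiter-Glo luminescence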
Where a name gives a salt, the structure may show the parent alone.
Give bare numbers, in %.

Here is how some compounds turned out for cell viability.
[[record]]
compound = "Cn1cc(C2=C(c3cn(C4CCN(Cc5ccccn5)CC4)c4ccccc34)C(=O)NC2=O)c2ccccc21"
measured_attribute = "cell viability"
val = 76.9

[[record]]
compound = "O=C(O[C@H]1C[N+]2(CCCOc3ccccc3)CCC1CC2)C(O)(c1cccs1)c1cccs1 [Aclidinium Bromide]"
measured_attribute = "cell viability"
val = 103

[[record]]
compound = "C[C@]12CC[C@H](O)C[C@@H]1CC[C@@H]1[C@@H]2CC[C@]2(C)C(=O)CC[C@@H]12"
measured_attribute = "cell viability"
val = 98.5

[[record]]
compound = "O=C(O)CNC(=O)C1C(=O)N(C2CCCCC2)C(=O)N(C2CCCCC2)C1=O"
measured_attribute = "cell viability"
val = 83.8

[[record]]
compound = "CN1[C@@H]2C[C@@H](OC(=O)[C@H](CO)c3ccccc3)C[C@H]1[C@@H]1O[C@@H]12 [Scopolamine hydrobromide]"
measured_attribute = "cell viability"
val = 104

[[record]]
compound = "CC(C)=CCC[C@]1(C)C=Cc2c(O)c3c(c(CC=C(C)C)c2O1)O[C@]12C(=C[C@@H]4C[C@H]1C(C)(C)O[C@@]2(C/C=C(/C)C(=O)O)C4=O)C3=O"
measured_attribute = "cell viability"
val = 0.42


*Q* cell viability of `Cc1c(N[C@@H](c2nnc(-c3ccc(C#N)cc3)o2)[C@H](C)O)ccc(C#N)c1Cl` on MOLM14?
*A* 88.9

###

Kindly state cell viability for each of the entries shown.
system: MOLM14; experiment: cell viability relative to vehicle control; higher = less cytotoxic; conditions: 10 µM; SRSF2 genotype: SRSF2 wt/wt;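 further: after 48 h exposure read by CellTiter-Glo luminescence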
Counter-ions that a name gives are not always drawn.
Numbers only, in %.

Answered cases to consult:
[[record]]
molecule = "C[C@H]1CC[C@@H]2N(C1)C[C@H]1[C@@H]3C[C@H]4[C@@H](C[C@H](O)[C@H]5C[C@@H](O)CC[C@@]54C)[C@@H]3CC[C@@H]1[C@]2(C)O [Peimine]"
measured_attribute = "cell viability"
val = 98.6

[[record]]
molecule = "C=C[C@@]12CN(C)[C@H]3C[C@]14C(=Nc1ccccc14)[C@@H]1C[C@@H]2[C@@H]3CO1 [Koumine]"
measured_attribute = "cell viability"
val = 96.2

[[record]]
molecule = "CC(=O)O[C@@H]1[C@H]2[C@@H](OC(=O)Cc3ccccc3)[C@@H](C)C[C@]2(OC(C)=O)C(=O)/C(C)=C/[C@@H]2[C@H](CC[C@]13CO3)C2(C)C [Euphorbia factor L1]"
measured_attribute = "cell viability"
val = 104


Required: cell viability, one value per molecule below.
1. CN1[C@@H]2C[C@@H](OC(=O)[C@H](CO)c3ccccc3)C[C@H]1[C@@H]1O[C@@H]12 [Scopolamine hydrobromide]
2. CCN1C[C@]2(COC)CC[C@H](OC)[C@]34C1[C@H]([C@H](OC)[C@H]23)[C@@]1(OC(C)=O)C[C@H](OC)[C@@]2(O)C[C@@H]4[C@@H]1[C@H]2OC(=O)c1ccc(OC)cc1 [Crassicauline A]
3. O=C(O)CNC(=O)c1c(O)c2ccccc2n(Cc2ccccc2)c1=O
4. CC(=O)O[C@H]1[C@H]2[C@@H](OC(=O)Cc3ccccc3)[C@@H](C)C[C@]2(OC(C)=O)C(=O)/C(C)=C/[C@@H]2[C@H](CC[C@@]13CO3)C2(C)C [Euphorbiasteroid]
5. CN1CCN(c2nc3ccccc3nc2Cl)CC1
6. CC(NC(C)(C)C)C(=O)c1cccc(Cl)c1 (configuration not stated) [Amfebutamone (Bupropion) HCl]
7. CCC(COC(=O)c1cc(OC)c(OC)c(OC)c1)(c1ccccc1)N(C)C (configuration not stated) [Trimebutine maleate]
8. C[C@@H]1CCC=C2C(=O)C[C@H]3OOC(C)(C)[C@H]3[C@]21C [Nardosinone]

*A*
100
90.6
101
30.6
109
95.6
98.2
91.4

*Q* Any idea what cell viability came out for CC(=O)O[C@H]1C[C@H](O[C@H]2[C@@H](O)C[C@H](O[C@H]3[C@@H](O)C[C@H](O[C@H]4CC[C@@]5(C)[C@H](CC[C@@H]6[C@@H]5C[C@@H](O)[C@]5(C)[C@@H](C7=CC(=O)OC7)CC[C@]65O)C4)O[C@@H]3C)O[C@@H]2C)O[C@H](C)[C@H]1O[C@@H]1O[C@H](CO)[C@@H](O)[C@H](O)[C@H]1O [Lanatoside C] on MOLM14?
*A* 0.9

###

Would you kindly list cell viability for each of these compounds?
tested on: MOLM14; assay: cell viability relative to vehicle control; higher = less cytotoxic; settings: 10 µM; SRSF2 genotype: SRSF2 P95H/wt;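 further: after 48 h exposure read by CellTiter-Glo luminescence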
Structures can show the parent of a compound that is named as a salt.
Numbers only, in %.

[[record]]
compound = "CC[C@@H]1CN2CC[C@@]3(C(=O)Nc4ccccc43)[C@@H]2C[C@@H]1/C(=C\\OC)C(=O)OC"
measured_attribute = "cell viability"
val = 77.1

[[record]]
compound = "C[C@]12CC[C@H]3[C@@H](CCC4=CC(=O)C=C[C@@]43C)[C@@H]1CC[C@@H]2O"
measured_attribute = "cell viability"
val = 105

[[record]]
compound = "CC(=O)O[C@@]12CO[C@@H]1C[C@H](O)[C@@]1(C)C(=O)[C@H](O)C3=C(C)[C@@H](OC(=O)[C@H](O)[C@@H](NC(=O)c4ccccc4)c4ccccc4)C[C@@](O)([C@@H](OC(=O)c4ccccc4)[C@H]21)C3(C)C"
measured_attribute = "cell viability"
val = 9.1

[[record]]
compound = "C[C@]12CCC(=O)C(O)=C1CC[C@@H]1[C@@H]2CC[C@]2(C)C(=O)CC[C@@H]12"
measured_attribute = "cell viability"
val = 107

[[record]]
compound = "COC(=O)C1=CCCN(C)C1"
measured_attribute = "cell viability"
val = 97.4

[[record]]
compound = "Cc1cccc(C(C)c2c[nH]cn2)c1C (configuration not stated) [Medetomidine HCl]"
measured_attribute = "cell viability"
val = 101

[[record]]
compound = "CNCC(=O)c1ccc(O)c(O)c1 [Adrenalone HCl]"
measured_attribute = "cell viability"
val = 88.6

[[record]]
compound = "COc1cc2c3c(c1OC)-c1ccccc1C[C@H]3N(C)CC2"
measured_attribute = "cell viability"
val = 102

[[record]]
compound = "CN(C)Cc1c[nH]c2ccccc12"
measured_attribute = "cell viability"
val = 99.6

[[record]]
compound = "Cc1ccccc1-n1c(CF)nc2ccc(N)cc2c1=O"
measured_attribute = "cell viability"
val = 93.2


Hi! Can you tell me cell viability for each of these compounds?
1. N#C[C@H](O[C@@H]1O[C@H](CO[C@@H]2O[C@H](CO)[C@@H](O)[C@H](O)[C@H]2O)[C@@H](O)[C@H](O)[C@H]1O)c1ccccc1
2. Cc1cc(C(=O)CN2CCCC2)c(C)n1-c1ccc(F)cc1

*A*
1. 106
2. 83.7

Would you mind listing cell viability for each of the following compounds?
1. c1cc2c(cc1[C@H]1OC[C@H]3[C@@H]1CO[C@H]3c1ccc3c(c1)OCO3)OCO2
2. COc1ccc(C[C@H]2NC[C@H](O)[C@H]2OC(C)=O)cc1
3. CC[C@H]1[C@@H]2C[C@H]3[C@@H]4N(C)c5ccccc5[C@]45C[C@@H]([C@@H]2[C@H]5O)N3[C@@H]1O
4. CCOc1ccccc1-n1c(C(C)N2CCN(C(=O)COc3ccc(Cl)cc3)CC2)nc2ccccc2c1=O (configuration not stated)
5. O=C(O)C(=O)c1cn(Cc2ccccc2)c2ccc(-c3ccc(OC(F)(F)F)cc3)cc12

*A*
1. 100
2. 0.46
3. 94.6
4. 6.91
5. 90.9

Hi there! I need cell viability for each item below, if you can.
1. COc1ccc(/C=C/c2cc(OC)cc(OC)c2)cc1 [3,4',5-Trimethoxy-trans-stilbene]
2. Cc1c([C@H](C)[C@@H]2NC[C@@H](C)C[C@H]2O)ccc2c1C[C@H]1[C@H]2CC=C2C[C@@H](O)CC[C@@]21C
3. CCCN1C[C@H](CSC)C[C@@H]2c3cccc4[nH]cc(c34)C[C@H]21 [Pergolide mesylate]
4. CCCCCCC[n+]1ccc(-c2cc[n+](CCCCCCC)cc2)cc1 [DHBP dibromide]
5. COc1c(C)c(O)cc2[o+]c(-c3ccccc3)ccc12.[O-][Cl+3]([O-])([O-])[O-] [Dracohodin perochlorate]

*A*
1. 15.3
2. 81.1
3. 69.6
4. 53.9
5. 80.1

Please look at the items below and tell me cell viability for each one, in order.
1. C/C(O)=C(\C#N)C(=O)Nc1cc(Br)ccc1Br
2. CC(=O)Nc1ccc(OC[C@](C)(O)C(=O)Nc2ccc([N+](=O)[O-])c(C(F)(F)F)c2)cc1
3. CC(C)OC(=O)[C@H](C)N[P@](=O)(CO[C@H](C)Cn1cnc2c(N)ncnc21)Oc1ccccc1 [Tenofovir Alafenamide (GS-7340)]
4. Cc1cccc([C@H](C)c2c[nH]cn2)c1C [Dexmedetomidine]
5. CC(C)C1=CC(=O)[C@@](C)(C2[C@H](O)C[C@@]3(C)[C@@H]4CC=C5[C@@H](CC[C@@H](OC6OCC(O)C(O)C6OC6OC(C)C(O)C(O)C6O)C5(C)C)[C@]4(C)C(=O)C[C@]23C)O1 (some centres not stated)

*A*
1: 78.9; 2: 106; 3: 87; 4: 105; 5: 89.7
